The values you see were collected from patent US11377444B2.

Give measured T/C for each item. Keep answers brief.
test system: human breast cancer MCF-7 cell subcutaneous xenograft tumor; test: In vivo pharmacodynamic study, MCF-7 subcutaneous xenograft tumor; parameters: species or system BALB/c nude mouse; conditions: 15 mg/kg
Express your answer in %, writing the number without its unit.

Q: Entry C[C@H]1COCCN1c1nc(N2CCOC3(CC3)C2)nc2nc(-c3cccc(C(N)=O)c3)ccc12 [Embodiment 51] has what T/C?
Result: 57.84

Q: # iterate: CNC(=O)c1cccc(-c2ccc3c(N4CCOC[C@@H]4C)nc(N4CCOC[C@@H]4C)nc3n2)c1 [AZD2014, reference compound]
Result: 20.36

Q: Repeat for the following molecule: C[C@H]1COCCN1c1nc(N2CCOC3(CCC3)C2)nc2nc(-c3cccc(C(N)=O)c3)ccc12 [Embodiment 44]
Result: 50.58

Q: Next: CC1COCCN1c1nc(N2CCOC3(CCCC3)C2)nc2nc(-c3cccc(C(N)=O)c3)ccc12 (centres unmarked) [Embodiment 49]
Result: 121.62

Q: Follow-up item: CNC(=O)c1cccc(-c2ccc3c(N4CCOC[C@@H]4C)nc(N4CCOC5(CCC5)C4)nc3n2)c1 [Embodiment 23]
Result: 54.13
